FYI, the data here is from patent US20230203155A1.

TARGET SYSTEM: T1, mouse serum albumin (mouse, UniProt P07724 25-608)
T1 construct: also called MSA
T1 sequence (P07724 25-608 limits assumed): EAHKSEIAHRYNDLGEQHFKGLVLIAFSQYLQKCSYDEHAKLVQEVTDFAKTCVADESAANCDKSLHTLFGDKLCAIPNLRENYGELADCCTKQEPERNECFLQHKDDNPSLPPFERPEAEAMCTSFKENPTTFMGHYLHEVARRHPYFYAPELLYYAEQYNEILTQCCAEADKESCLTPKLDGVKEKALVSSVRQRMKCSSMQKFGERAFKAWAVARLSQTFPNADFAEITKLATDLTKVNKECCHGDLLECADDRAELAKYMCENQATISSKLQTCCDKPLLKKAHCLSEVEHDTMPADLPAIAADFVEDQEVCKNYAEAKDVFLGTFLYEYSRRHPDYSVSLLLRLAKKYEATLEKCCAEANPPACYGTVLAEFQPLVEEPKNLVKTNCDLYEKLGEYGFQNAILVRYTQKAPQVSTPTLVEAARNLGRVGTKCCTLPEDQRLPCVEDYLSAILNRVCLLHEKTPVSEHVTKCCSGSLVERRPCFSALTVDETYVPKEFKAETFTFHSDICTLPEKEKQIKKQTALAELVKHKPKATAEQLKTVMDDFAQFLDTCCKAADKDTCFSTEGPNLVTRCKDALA
ASSAY COMMENT: SPR, albumin on chip, pH 5.5;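 further: albumins amine-coupled onto carboxyl SPR chips, with each analyte also run over a hen egg lysozyme surface as negative control, Kd derived from binding kinetics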
QUANTITY NAME: Kd (nM)
The response must be a number in nM with no trailing unit.

Example binders with recorded Kd:
INSERT INTO measurements (binder, units_text, recorded_measurement) VALUES
  ('BA11-C term thiol-maleimide-peg-fluorescein (VNAR, C-terminal thiol conjugated to maleimide-peg-fluorescein, also called BA11-S-mal-Fl) VNAR: TRVDQSPSSLSASVGDRVTITCVLTDTSYPLYSTYWYRKNPGSSNKEQISISGRYSESVNKGTKSFTLTISSLQPEDSATYYCRAMSTNIWTGDGAGTKVEIK', 'nM', 10.6),
  ('BA11-oxime-fluorescein (VNAR, C-terminal oxime-linked benzaldehyde-peg-fluorescein) VNAR: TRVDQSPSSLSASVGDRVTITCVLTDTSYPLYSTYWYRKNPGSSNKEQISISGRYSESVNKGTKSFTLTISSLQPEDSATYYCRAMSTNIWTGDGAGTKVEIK', 'nM', 7.44),
  ('BA11-C terminal cysteine-maleimide-peg-fluorescein (VNAR, C-terminal cysteine conjugated to maleimide-peg-fluorescein, also called BA11-cys-mal-Fl) VNAR: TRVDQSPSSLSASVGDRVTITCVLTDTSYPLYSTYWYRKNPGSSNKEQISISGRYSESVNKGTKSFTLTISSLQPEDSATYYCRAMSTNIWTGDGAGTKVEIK', 'nM', 13.6),
  ('BA11 C-terminal thiol derivative (VNAR, C-terminal thiol (intein cleavage with cysteamine), also called BA11-SH) VNAR: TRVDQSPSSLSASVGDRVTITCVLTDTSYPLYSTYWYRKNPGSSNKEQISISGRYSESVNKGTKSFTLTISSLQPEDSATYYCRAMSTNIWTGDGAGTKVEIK', 'nM', 11.1);

binder BA11 C-terminal cysteine derivative (VNAR, additional C-terminal cysteine (intein cleavage with cysteine), also called BA11-cys) VNAR: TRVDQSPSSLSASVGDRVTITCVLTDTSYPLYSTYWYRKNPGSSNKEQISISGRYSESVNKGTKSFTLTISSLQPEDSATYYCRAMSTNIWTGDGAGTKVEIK , Kd observed: 3.77
